Hey, just so you know, these numbers are from patent US11254690B2.

target: CDK9/CycT1 (Homo sapiens, UniProt P50750); construct: Recombinant full-length His-tagged human CDK9 and CycT1; His; purchased Life Technologies PV4131; host or cells: insect cells; assay: CDK9/CycT1 high ATP kinase assay (TR-FRET, 2 mM ATP); assay type: biochemical; conditions: ratio from Methods 1b and 2b; minimal values for IC50s near the assay limit
Sequence (P50750 whole entry): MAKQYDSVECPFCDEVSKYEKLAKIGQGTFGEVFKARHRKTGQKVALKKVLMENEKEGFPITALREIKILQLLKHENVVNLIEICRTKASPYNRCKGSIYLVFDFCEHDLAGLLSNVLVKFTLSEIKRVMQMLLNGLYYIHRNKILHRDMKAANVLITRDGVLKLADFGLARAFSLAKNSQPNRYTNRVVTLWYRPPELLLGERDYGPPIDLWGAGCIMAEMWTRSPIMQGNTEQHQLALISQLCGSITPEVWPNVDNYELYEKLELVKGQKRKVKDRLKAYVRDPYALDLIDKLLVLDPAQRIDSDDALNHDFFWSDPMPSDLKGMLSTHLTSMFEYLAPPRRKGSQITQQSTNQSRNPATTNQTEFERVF
Sequence (O60563 whole entry partner): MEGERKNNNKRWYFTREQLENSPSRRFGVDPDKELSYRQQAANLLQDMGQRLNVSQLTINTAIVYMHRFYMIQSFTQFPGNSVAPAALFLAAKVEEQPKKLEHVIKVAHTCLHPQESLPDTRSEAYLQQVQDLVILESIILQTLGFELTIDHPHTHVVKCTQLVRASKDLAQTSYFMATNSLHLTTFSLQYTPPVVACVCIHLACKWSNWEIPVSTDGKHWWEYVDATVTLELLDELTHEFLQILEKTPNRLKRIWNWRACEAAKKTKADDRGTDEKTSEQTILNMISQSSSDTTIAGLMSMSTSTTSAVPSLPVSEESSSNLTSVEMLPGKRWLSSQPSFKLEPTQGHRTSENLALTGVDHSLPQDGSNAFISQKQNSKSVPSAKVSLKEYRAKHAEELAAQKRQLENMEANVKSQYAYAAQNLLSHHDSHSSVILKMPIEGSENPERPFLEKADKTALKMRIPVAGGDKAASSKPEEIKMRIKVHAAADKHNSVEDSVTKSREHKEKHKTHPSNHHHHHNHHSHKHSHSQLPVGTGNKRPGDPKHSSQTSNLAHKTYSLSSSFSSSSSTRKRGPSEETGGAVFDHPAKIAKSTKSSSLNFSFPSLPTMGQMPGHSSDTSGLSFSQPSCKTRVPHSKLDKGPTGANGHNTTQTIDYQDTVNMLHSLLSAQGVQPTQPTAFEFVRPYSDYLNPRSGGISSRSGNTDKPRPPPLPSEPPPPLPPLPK
recorded-endpoint: Selectivity high ATP CDK9 over high ATP CDK2: IC50 (high ATP CDK2)/IC50 (high ATP CDK9)
Answer with a bare number; do not write a unit.

Which Selectivity high ATP CDK9 over high ATP CDK2: IC50 (high ATP CDK2)/IC50 (high ATP CDK9) is listed for CSCc1cc2nc(c1)OC(C)CCCCOc1cc(ccc1F)-c1cc(ncc1F)N2 (single isomer, unassigned) [Example 20] ?
548

Which Selectivity high ATP CDK9 over high ATP CDK2: IC50 (high ATP CDK2)/IC50 (high ATP CDK9) is listed for CS(=N)(=O)Cc1cc2cc(c1)OCCCOc1cc(ccc1F)-c1nc(ncc1F)N2 (racemic) ?
190

Which Selectivity high ATP CDK9 over high ATP CDK2: IC50 (high ATP CDK2)/IC50 (high ATP CDK9) is listed for CC1CCCCCOc2cc(ccc2F)-c2cc(ncc2F)Nc2cc(CS(C)(=N)=O)cc(n2)O1 (single isomer, unassigned) [Example 26] ?
3250

Which Selectivity high ATP CDK9 over high ATP CDK2: IC50 (high ATP CDK2)/IC50 (high ATP CDK9) is listed for CS(=N)(=O)Cc1cc2cc(c1)OCCCCOc1cc(ccc1F)-c1nc(ncc1F)N2 (racemic) ?
513

Which Selectivity high ATP CDK9 over high ATP CDK2: IC50 (high ATP CDK2)/IC50 (high ATP CDK9) is listed for CC1CCCCOc2cc(ccc2F)-c2cc(ncc2F)Nc2cc(CS(C)(=N)=O)cc(n2)O1 (single isomer, unassigned) [Example 22] ?
251

Which Selectivity high ATP CDK9 over high ATP CDK2: IC50 (high ATP CDK2)/IC50 (high ATP CDK9) is listed for CC1CCCOc2cc(ccc2F)-c2cc(ncc2F)Nc2cc(CS(C)(=N)=O)cc(n2)O1 (single isomer, unassigned) [Example 15] ?
540

---

molecular target: CDK9/CycT1 (Homo sapiens); construct: Recombinant full-length His-tagged human CDK9 and CycT1; His; assay: CDK9/CycT1 high ATP kinase assay (TR-FRET, 2 mM ATP); details: 2 mM ATP, Method 1b; lower limit for IC50s about 1-2 nM
recorded-endpoint: IC50 (nM)
Your answer should be a plain number; it is taken to be in nM.

Which IC50 is listed for CS(=N)(=O)Cc1cc2cc(c1)OCCCOc1cc(ccc1F)-c1nc(ncc1F)N2 (racemic) ?
25

Which IC50 is listed for CC1CCCCOc2cc(ccc2F)-c2cc(ncc2F)Nc2cc(CS(C)(=O)=O)cc(n2)O1 (single isomer, unassigned) [Example 29] ?
4

Which IC50 is listed for CC1CCCOc2cc(ccc2F)-c2cc(ncc2F)Nc2cc(CS(C)(=N)=O)cc(n2)O1 (single isomer, unassigned) [Example 15] ?
3

Which IC50 is listed for CC1CCCCCOc2cc(ccc2F)-c2cc(ncc2F)Nc2cc(CS(C)(=N)=O)cc(n2)O1 (single isomer, unassigned) [Example 26] ?
4

---

Assignment: determine reported Selectivity high ATP CDK9 over high ATP CDK2: IC50 (high ATP CDK2)/IC50 (high ATP CDK9) for the given compounds.
target: CDK9/CycT1 (Homo sapiens); construct: Recombinant full-length His-tagged human CDK9 and CycT1; His; purchased Life Technologies PV4131; host or cells: insect cells; assay: CDK9/CycT1 high ATP kinase assay (TR-FRET, 2 mM ATP); assay type: biochemical; details: ratio from Methods 1b and 2b; minimal values for IC50s near the assay limit
Answer with a bare number; do not write a unit.

Which Selectivity high ATP CDK9 over high ATP CDK2: IC50 (high ATP CDK2)/IC50 (high ATP CDK9) is listed for CC1CCCOc2cc(ccc2F)-c2cc(ncc2F)Nc2cc(CS(C)(=N)=O)cc(n2)O1 (single isomer, unassigned) [Example 16] ?
72

Which Selectivity high ATP CDK9 over high ATP CDK2: IC50 (high ATP CDK2)/IC50 (high ATP CDK9) is listed for CC1CCCOc2cc(ccc2F)-c2cc(ncc2F)Nc2cc(CS(C)(=N)=O)cc(n2)O1 (single isomer, unassigned) [Example 14] ?
503

Which Selectivity high ATP CDK9 over high ATP CDK2: IC50 (high ATP CDK2)/IC50 (high ATP CDK9) is listed for CS(=N)(=O)Cc1cc2cc(c1)OCCCCCOc1cc(ccc1F)-c1nc(ncc1F)N2 (racemic) ?
3240

Which Selectivity high ATP CDK9 over high ATP CDK2: IC50 (high ATP CDK2)/IC50 (high ATP CDK9) is listed for CC1CCCCCOc2cc(ccc2F)-c2cc(ncc2F)Nc2cc(CS(C)(=O)=O)cc(n2)O1 (single isomer, unassigned) [Example 32] ?
277

---

biological target: CDK9/CycT1 (Homo sapiens, UniProt P50750); construct: Recombinant full-length His-tagged human CDK9 and CycT1; His; purchased Life Technologies PV4131; host or cells: insect cells; assay: CDK9/CycT1 high ATP kinase assay (TR-FRET, 2 mM ATP); format: biochemical; conditions: ratio from Methods 1b and 2b; minimal values for IC50s near the assay limit
Would you please tag the item 1 (yes) when its Selectivity high ATP CDK9 over high ATP CDK2: IC50 (high ATP CDK2)/IC50 (high ATP CDK9) is 500 or above, and 0 (no) when it is below?

Can CC1CCCCCOc2cc(ccc2F)-c2cc(ncc2F)Nc2cc(CS(C)(=N)=O)cc(n2)O1 (single isomer, unassigned) [Example 27] be said to have Selectivity high ATP CDK9 over high ATP CDK2: IC50 (high ATP CDK2)/IC50 (high ATP CDK9) at or above 500?
1 (yes)

Can CSCc1cc2nc(c1)OC(C)CCCOc1cc(ccc1F)-c1cc(ncc1F)N2 (single isomer, unassigned) [Example 13] be said to have Selectivity high ATP CDK9 over high ATP CDK2: IC50 (high ATP CDK2)/IC50 (high ATP CDK9) at or above 500?
0 (no)

Can CS(=N)(=O)Cc1cc2cc(c1)OCCCCOc1c(F)ccc(c1F)-c1nc(ncc1F)N2 (racemic) be said to have Selectivity high ATP CDK9 over high ATP CDK2: IC50 (high ATP CDK2)/IC50 (high ATP CDK9) at or above 500?
0 (no)

Can CSCc1cc2nc(c1)OC(C)CCCCOc1cc(ccc1F)-c1cc(ncc1F)N2 (racemic) [Example 18] be said to have Selectivity high ATP CDK9 over high ATP CDK2: IC50 (high ATP CDK2)/IC50 (high ATP CDK9) at or above 500?
1 (yes)

Can CS(=N)(=O)Cc1cc2nc(c1)OCCCCOc1cc(ccc1F)-c1cc(ncc1F)N2 (racemic) be said to have Selectivity high ATP CDK9 over high ATP CDK2: IC50 (high ATP CDK2)/IC50 (high ATP CDK9) at or above 500?
0 (no)

Can CSCc1cc2nc(c1)OC(C)CCCOc1cc(ccc1F)-c1cc(ncc1F)N2 (racemic) [Example 11] be said to have Selectivity high ATP CDK9 over high ATP CDK2: IC50 (high ATP CDK2)/IC50 (high ATP CDK9) at or above 500?
1 (yes)

---

Assignment: determine reported pIC50 for the given compounds.
target: CDK9/CycT1 (Homo sapiens); construct: Recombinant full-length His-tagged human CDK9 and CycT1; His; assay: CDK9/CycT1 high ATP kinase assay (TR-FRET, 2 mM ATP); settings: 2 mM ATP, Method 1b; lower limit for IC50s about 1-2 nM
Note on units: pIC50 is unitless, being -log10 of a concentration expressed in mol/L.

Which pIC50 is listed for CC1CCCCCOc2cc(ccc2F)-c2cc(ncc2F)Nc2cc(CS(C)(=N)=O)cc(n2)O1 (single isomer, unassigned) [Example 27] ?
8.30

Which pIC50 is listed for CSCc1cc2nc(c1)OC(C)CCCOc1cc(ccc1F)-c1cc(ncc1F)N2 (single isomer, unassigned) [Example 12] ?
8.40

Which pIC50 is listed for CSCc1cc2nc(c1)OC(C)CCCCOc1cc(ccc1F)-c1cc(ncc1F)N2 (single isomer, unassigned) [Example 19] ?
6.86

Which pIC50 is listed for CC1CCCCCOc2cc(ccc2F)-c2cc(ncc2F)Nc2cc(CS(C)(=O)=O)cc(n2)O1 (single isomer, unassigned) [Example 31] ?
7.80

Which pIC50 is listed for CSCc1cc2nc(c1)OC(C)CCCOc1cc(ccc1F)-c1cc(ncc1F)N2 (racemic) [Example 11] ?
8.15

Which pIC50 is listed for CS(=N)(=O)Cc1cc2nc(c1)OCCCCOc1cc(ccc1F)-c1cc(ncc1F)N2 (racemic) ?
8.15
